These entries and their values trace back to the supplement of paper PMC11003180.

Parameter drug sensitivity score: see the listing below.
test system: MDCK p60AmotL2-inducible + doxycycline (p60AmotL2 expressing); test: drug sensitivity score (DSS) from 5-dose viability curve (DSS (area-based score, 0 = no response)); higher = more sensitive (stronger viability inhibition); extreme values may be limits of the assay; details: doxycycline: 10 ng/mL; 72 h
Quantity: drug sensitivity score

{"Molecule": "Nc1nc2cc(-c3ccc4ncc(C(=O)N5CCOCC5)n4c3)ccc2o1 [Serabelisib]", "Quantity": "drug sensitivity score", "Val": 1.3}
{"Molecule": "CC(C)(O)CC(=O)NCCn1ccc2ncnc(Nc3ccc(Oc4cccc(C(F)(F)F)c4)c(Cl)c3)c21 [TAK-285]", "Quantity": "drug sensitivity score", "Val": 6.4}
{"Molecule": "CN(C)CC#Cc1ccc(OCCCc2sc(N3CCc4cccc(C(=O)Nc5nc6ccccc6s5)c4C3)nc2C(=O)O)c(F)c1", "Quantity": "drug sensitivity score", "Val": 0}

----------
tested on: MDCK p60AmotL2-inducible + doxycycline (p60AmotL2 expressing); test: drug sensitivity score (DSS) from 5-dose viability curve (DSS (area-based score, 0 = no response)); higher = more sensitive (stronger viability inhibition); extreme values may be limits of the assay; conditions: doxycycline: 10 ng/mL; 72 h

{"Smiles Representation": "Cc1nc(=O)c2cc(CN(C)c3ccc(C(=O)N[C@@H](CCC(=O)O)C(=O)O)s3)ccc2[nH]1", "drug sensitivity score": 5}
{"Smiles Representation": "CC[C@H](Nc1ncnc2[nH]cnc12)c1nc2cccc(F)c2c(=O)n1-c1ccccc1", "drug sensitivity score": 0.7}
{"Smiles Representation": "CN1CCc2c(c3ccccc3n2Cc2ccc(C(=O)NO)cc2)C1", "drug sensitivity score": 0.7}

----------
Listed next: entries and their corresponding drug sensitivity score.
test system: MDCK p60AmotL2-inducible + doxycycline (p60AmotL2 expressing); assay: drug sensitivity score (DSS) from 5-dose viability curve (DSS (area-based score, 0 = no response)); higher = more sensitive (stronger viability inhibition); extreme values may be limits of the assay; conditions: doxycycline: 10 ng/mL; 72 h

{"Molecule": "O=C(/C=C\\n1cnc(-c2cc(C(F)(F)F)cc(C(F)(F)F)c2)n1)NNc1cnccn1 [Selinexor]", "drug sensitivity score": 16.7}
{"Molecule": "COCCNCc1ccc(-c2cc3nccc(Oc4ccc(NC(=S)NC(=O)Cc5ccc(F)cc5)cc4F)c3s2)nc1", "drug sensitivity score": 0.4}
{"Molecule": "C[C@@H]1COC(Nc2ccc3ncnc(Nc4ccc(OCc5nccs5)c(Cl)c4)c3c2)=N1", "drug sensitivity score": 7.2}
{"Molecule": "O=C(O)CCCCC(CCSCc1ccccc1)SCc1ccccc1 (stereo not given)", "drug sensitivity score": 0}
{"Molecule": "CCN1C(=O)CNc2ncc(-c3ccc(-c4nc[nH]n4)nc3C)nc21", "drug sensitivity score": 9.4}

----------
test system: MDCK p60AmotL2-inducible + doxycycline (p60AmotL2 expressing); experiment: drug sensitivity score (DSS) from 5-dose viability curve (DSS (area-based score, 0 = no response)); higher = more sensitive (stronger viability inhibition); extreme values may be limits of the assay; conditions: doxycycline: 10 ng/mL; 72 h
Listed here are compounds together with their documented drug sensitivity score.
Quantity: drug sensitivity score

{"Compound": "CN1CCN(c2nc(C3=C(c4c[nH]c5ccccc45)C(=O)NC3=O)c3ccccc3n2)CC1", "Quantity": "drug sensitivity score", "Val": 0.3}
{"Compound": "Cc1ccc(-c2cc(C(F)(F)F)nn2-c2ccc(S(N)(=O)=O)cc2)cc1", "Quantity": "drug sensitivity score", "Val": 0}
{"Compound": "Cc1cc(F)c(C(=O)Nc2cccc(-c3nncn3C(C)C)n2)cc1-n1cnc(C2CC2)c1", "Quantity": "drug sensitivity score", "Val": 0}
{"Compound": "Cc1ncc(-c2ccnc(Nc3ccc(S(C)(=O)=O)cc3)n2)n1C(C)C", "Quantity": "drug sensitivity score", "Val": 9.1}
{"Compound": "CN[C@@H](C)C(=O)N[C@H]1CN(C(=O)CC(C)C)CC[C@H]2CC[C@@H](C(=O)NC(c3ccccc3)c3ccccc3)N2C1=O", "Quantity": "drug sensitivity score", "Val": 0}
{"Compound": "COc1ccc(C[C@H](NC(=O)[C@H](C)NC(=O)CN2CCOCC2)C(=O)N[C@@H](Cc2ccccc2)C(=O)C2(C)CO2)cc1 (stereo in doubt)", "Quantity": "drug sensitivity score", "Val": 12.5}
{"Compound": "Cc1nc(C(=O)NCC(=O)O)c(O)c2ccc(Oc3ccccc3)cc12", "Quantity": "drug sensitivity score", "Val": 0}
